# System: Candida albicans
# runDescription: Antimicrobial activity against fluconazole-resistant Candida albicans
# Type: functional
log10(MIC) for assorted compounds
# values: log10(MIC), units µg/mL

# example entries with known answers
CC(=O)O[C@H]1CC[C@]2(C)[C@H]3CC=C4[C@@H]5CC(C)(C)CC[C@]5(C(=O)NCCCCN)CC[C@@]4(C)[C@]3(C)CC[C@H]2C1(C)C	0.60
CC(=O)O[C@H]1CC[C@]2(C)[C@H]3CC=C4[C@@H]5CC(C)(C)CC[C@]5(C(=O)NCCCCNC(=N)N)CC[C@@]4(C)[C@]3(C)CC[C@H]2C1(C)C	0.30
CC1(C)CC[C@]2(C(=O)O)CC[C@]3(C)C(=CC[C@@H]4[C@@]5(C)CC[C@H](OCC(O)CCCCNC(=N)N)C(C)(C)[C@@H]5CC[C@]43C)[C@@H]2C1 (stereo not given in full)	0.60
CC1(C)CC[C@]2(C(=O)O)CC[C@]3(C)C(=CC[C@@H]4[C@@]5(C)CC[C@H](OCC(O)CCCCCCCCN)C(C)(C)[C@@H]5CC[C@]43C)[C@@H]2C1 (stereo not given in full)	1.51
CC1(C)CC[C@]2(C(=O)O)CC[C@]3(C)C(=CC[C@@H]4[C@@]5(C)CC[C@H](OC(=O)CCCC(=O)O)C(C)(C)[C@@H]5CC[C@]43C)[C@@H]2C1	1.51

Query :: Please tell me the measured log10(MIC) for CC(=O)O[C@H]1CC[C@]2(C)[C@H]3CC=C4[C@@H]5CC(C)(C)CC[C@]5(C(=O)NCCCCCCCCNC(=N)N)CC[C@@]4(C)[C@]3(C)CC[C@H]2C1(C)C ; system: Candida albicans.
Result :: 1.20

Query :: Tell me log10(MIC) of CC1(C)CC[C@]2(C(=O)O)CC[C@]3(C)C(=CC[C@@H]4[C@@]5(C)CC[C@H](OCC(O)CCCN)C(C)(C)[C@@H]5CC[C@]43C)[C@@H]2C1 (stereo not given in full) when tested on Candida albicans.
Result :: 0.60

Query :: Write down measured log10(MIC) (Candida albicans) for this compound. CC(=O)O[C@H]1CC[C@]2(C)[C@H]3CC=C4[C@@H]5CC(C)(C)CC[C@]5(C(=O)NCCCNC(=N)N)CC[C@@]4(C)[C@]3(C)CC[C@H]2C1(C)C
Result :: 0.00

----------
# System: Candida albicans
# runDescription: Antimicrobial activity against fluconazole-resistant Candida albicans
# Assay type: functional
reportedEndpoint: MIC

Illustrative cases are given below, each with its answer.
CC(=O)O[C@H]1CC[C@]2(C)[C@H]3CC=C4[C@@H]5CC(C)(C)CC[C@]5(C(=O)NCc5ccc(F)cc5)CC[C@@]4(C)[C@]3(C)CC[C@H]2C1(C)C	> 64 µg/mL
CCNCC(O)CO[C@H]1CC[C@]2(C)[C@H]3CC=C4[C@@H]5CC(C)(C)CC[C@]5(C(=O)O)CC[C@@]4(C)[C@]3(C)CC[C@H]2C1(C)C (stereo partly drawn)	> 64 µg/mL

Query :: Lab note: record MIC of CCCC(=O)O[C@H]1CC[C@]2(C)[C@H]3CC=C4[C@@H]5CC(C)(C)CC[C@]5(C(=O)O)CC[C@@]4(C)[C@]3(C)CC[C@H]2C1(C)C tested on Candida albicans.
Result :: > 64 µg/mL
